Each item that follows carries a reported growth AUC normalised to DMSO control.
System: S. enterica typhimurium tolC KO;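 note: active when median AUC fell below 0.1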
experiment-notes: growth AUC normalised to DMSO control (median) (fraction of control); higher = less growth inhibition, active = hit call of the paper
experimental-context: 20 µM
Where a name gives a salt, the structure may show the parent alone.
# output: bare number, no unit

compound	growth AUC normalised to DMSO control
CC(=O)S[C@@H]1CC2=CC(=O)CC[C@]2(C)[C@H]2CC[C@@]3(C)[C@@H](CC[C@@]34CCC(=O)O4)[C@H]12 [Spironolactone]	0.981
C[C@@H]1[C@H](O)[C@@H](C)/C=C/C=C/C=C/C=C/C=C/C=C/C=C/[C@H](O[C@@H]2O[C@H](C)[C@@H](O)[C@H](N)[C@@H]2O)C[C@@H]2O[C@](O)(C[C@@H](O)C[C@@H](O)[C@H](O)CC[C@@H](O)C[C@@H](O)CC(=O)O[C@H]1C)C[C@H](O)[C@H]2C(=O)O [Amphotericin B]	0.988
Oc1cc(O)c2c(c1)O[C@H](c1ccc(O)c(O)c1)[C@@H](O)C2 [Cianidanol]	0.994
CCC(NC(C)C)C(O)c1ccc(O)c2[nH]c(=O)ccc12 (stereo unspecified) [Procaterol hydrochloride]	0.987
C[C@H](CS)C(=O)N1CCC[C@H]1C(=O)O [Captopril]	1.01

Let us move to another entry and its growth AUC normalised to DMSO control.
Problem: Field request: growth AUC normalised to DMSO control | item: COc1cc(C(=O)NS(=O)(=O)c2ccccc2C)ccc1Cc1cn(C)c2ccc(NC(=O)OC3CCCC3)cc12 [Zafirlukast]
Result: 0.962

Provenance of the data: the supplement of paper PMC12350171
